- experimental-system: T1, human CD3E&G complex (Sino Biological Inc., CT041-H0305H) (human, UniProt P07766 23-126; P09693 23-116)
- T1 construct: bought heterodimer; also called human CD3E&G antigen
- T1 sequence (P07766 23-126, chain 1 of 2): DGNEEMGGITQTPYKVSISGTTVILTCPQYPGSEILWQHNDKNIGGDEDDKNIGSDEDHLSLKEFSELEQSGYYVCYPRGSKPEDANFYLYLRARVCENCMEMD
- T1 sequence (P09693 23-116, chain 2 of 2): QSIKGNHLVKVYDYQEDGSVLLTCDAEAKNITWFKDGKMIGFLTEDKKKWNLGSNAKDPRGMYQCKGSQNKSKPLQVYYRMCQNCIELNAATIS
- assay-procedure: BLI, antibody on sensor
property-name: Kd
Write the figure, then the unit, nothing else.

What does the record list as Kd for hzsp34.97 (antibody, human IgG1, lambda, L234A L235A, V domains shown, CDR mutant of hzsp34.24; IgG1 L234A L235A, lambda) VH: EVQLVESGGGLVQPGGSLKLSCAASGFTFNTYAMNWVRQASGKGLEWVGRIRSKAGGYATYYADSVKDRFTISRDDSKSTLYLQMNSLKTEDTAVYYCARHGNFGQSYVSWFAYWGQGTTVTVSS VL: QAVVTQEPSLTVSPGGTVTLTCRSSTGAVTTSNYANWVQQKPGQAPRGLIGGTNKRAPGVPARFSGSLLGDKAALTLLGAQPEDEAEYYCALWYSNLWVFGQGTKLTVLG ?
11 nM

Try this binder too: hzsp34.107 (antibody, human IgG1, lambda, L234A L235A, V domains shown, CDR mutant of hzsp34.24; IgG1 L234A L235A, lambda) VH: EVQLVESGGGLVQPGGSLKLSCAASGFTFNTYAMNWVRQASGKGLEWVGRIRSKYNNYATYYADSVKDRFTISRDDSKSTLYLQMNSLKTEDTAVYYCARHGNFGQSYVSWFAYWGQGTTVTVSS VL: QAVVTQEPSLTVSPGGTVTLTCRSSTGAVTTSNYANWVQQKPGQAPRGLIGGTNKRAPGVPARFSGSLLGDKAALTLLGAQPEDEAEYYCALAYSNLWVFGQGTKLTVLG
59.8 nM

Try this binder too: hzsp34.86 (antibody, human IgG1, lambda, L234A L235A, V domains shown, CDR mutant of hzsp34.24; IgG1 L234A L235A, lambda) VH: EVQLVESGGGLVQPGGSLKLSCAASGFTFNTYAMNWVRQASGKGLEWVGRIRSKYNNYATYYADSVKDRFTISRDDSKSTLYLQMNSLKTEDTAVYYCARAGNFGQSYVSWFAYWGQGTTVTVSS VL: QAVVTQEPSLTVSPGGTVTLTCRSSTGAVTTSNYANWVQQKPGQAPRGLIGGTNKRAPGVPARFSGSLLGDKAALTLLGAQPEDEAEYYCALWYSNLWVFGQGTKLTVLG
6.61 nM
